target: PKCε (Homo sapiens, UniProt Q02156); assay: FRET based LANCE Ultra kinase assay; type: biochemical; conditions: log of molar IC50
Sequence (Q02156 whole entry): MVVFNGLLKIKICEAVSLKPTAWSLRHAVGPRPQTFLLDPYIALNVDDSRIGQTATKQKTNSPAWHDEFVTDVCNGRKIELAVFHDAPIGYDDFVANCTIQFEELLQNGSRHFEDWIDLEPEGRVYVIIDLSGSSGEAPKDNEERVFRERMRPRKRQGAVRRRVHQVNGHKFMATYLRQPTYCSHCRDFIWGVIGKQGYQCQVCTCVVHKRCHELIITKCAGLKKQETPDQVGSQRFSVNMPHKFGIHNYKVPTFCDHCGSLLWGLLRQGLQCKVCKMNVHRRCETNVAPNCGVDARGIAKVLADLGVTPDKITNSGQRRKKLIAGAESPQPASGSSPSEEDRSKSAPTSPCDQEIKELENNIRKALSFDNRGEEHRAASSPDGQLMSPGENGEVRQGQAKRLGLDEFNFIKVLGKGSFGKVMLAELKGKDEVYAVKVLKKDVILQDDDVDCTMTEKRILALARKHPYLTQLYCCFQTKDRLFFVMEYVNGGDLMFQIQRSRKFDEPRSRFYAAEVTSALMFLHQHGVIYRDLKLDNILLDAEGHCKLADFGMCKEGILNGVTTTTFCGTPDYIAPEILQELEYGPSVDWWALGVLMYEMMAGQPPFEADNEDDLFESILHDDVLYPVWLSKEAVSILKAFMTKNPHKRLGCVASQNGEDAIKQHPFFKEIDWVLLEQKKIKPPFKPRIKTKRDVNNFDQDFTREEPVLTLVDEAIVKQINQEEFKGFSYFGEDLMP
Please map values of Log IC50 to classes as shown: 0 = under -7, 1 = from -7 up to -6, 2 = -6 and over

>>> df
                                   compound  answer_label
0  CC(C)(C(=O)NCC(N)[C@H]1CC[C@H](C(=O)Nc2ccncc2)CC1)c1cccs1 (stereo partly drawn) [Compound 7]             1
1  NC(C(=O)NCc1ccc(F)cc1)[C@H]1CC[C@H](C(=O)Nc2ccncc2)CC1 (stereo partly drawn) [Compound 12]             2
2  CC(C)(C(=O)NCC(N)[C@H]1CC[C@H](C(=O)Nc2ccncc2)CC1)c1ccc(Cl)cc1 (stereo partly drawn) [Compound 9]             0
3  NC(CNC(=O)C1(c2ccc(F)c(F)c2)CC1)[C@H]1CC[C@H](C(=O)Nc2ccncc2)CC1 (stereo partly drawn) [Compound 6]             0
4  NC(CNC(=O)C1CCc2cc(Cl)ccc21)[C@H]1CC[C@H](C(=O)Nc2ccncc2)CC1 (stereo partly drawn) [Compound 8]             1
5  NC(CNC(=O)C1(c2ccc(F)cc2)CCCC1)[C@H]1CC[C@H](C(=O)Nc2ccncc2)CC1 (stereo partly drawn) [Compound 5]             0
6  NC(C(=O)NC1COc2ccccc21)[C@H]1CC[C@H](C(=O)Nc2ccncc2)CC1 (stereo partly drawn) [Compound 10]             2
